molecular target: Recombinant human HDAC3/SMRT heterodimer (Homo sapiens, UniProt O15379); construct: FLAG (C); made in house; assay: Human HDAC enzyme inhibitor Fluor-de-Lys assay, HDAC3/SMRT; assay type: biochemical; conditions: recombinant human HDAC3/SMRT, Fluor-de-Lys assay
Sequence (O15379 whole entry): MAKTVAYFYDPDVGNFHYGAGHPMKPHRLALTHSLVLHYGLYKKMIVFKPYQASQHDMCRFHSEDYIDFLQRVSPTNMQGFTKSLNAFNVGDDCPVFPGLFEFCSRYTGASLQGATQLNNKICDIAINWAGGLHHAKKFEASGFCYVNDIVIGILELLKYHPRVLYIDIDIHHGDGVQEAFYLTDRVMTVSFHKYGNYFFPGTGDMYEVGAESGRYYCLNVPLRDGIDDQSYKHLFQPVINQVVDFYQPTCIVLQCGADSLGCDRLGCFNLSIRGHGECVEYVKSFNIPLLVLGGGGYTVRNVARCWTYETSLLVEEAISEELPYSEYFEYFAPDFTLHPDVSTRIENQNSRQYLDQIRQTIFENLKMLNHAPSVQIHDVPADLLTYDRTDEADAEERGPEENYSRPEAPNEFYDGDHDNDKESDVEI
Sequence (Q9Y618 1-899 partner limits assumed): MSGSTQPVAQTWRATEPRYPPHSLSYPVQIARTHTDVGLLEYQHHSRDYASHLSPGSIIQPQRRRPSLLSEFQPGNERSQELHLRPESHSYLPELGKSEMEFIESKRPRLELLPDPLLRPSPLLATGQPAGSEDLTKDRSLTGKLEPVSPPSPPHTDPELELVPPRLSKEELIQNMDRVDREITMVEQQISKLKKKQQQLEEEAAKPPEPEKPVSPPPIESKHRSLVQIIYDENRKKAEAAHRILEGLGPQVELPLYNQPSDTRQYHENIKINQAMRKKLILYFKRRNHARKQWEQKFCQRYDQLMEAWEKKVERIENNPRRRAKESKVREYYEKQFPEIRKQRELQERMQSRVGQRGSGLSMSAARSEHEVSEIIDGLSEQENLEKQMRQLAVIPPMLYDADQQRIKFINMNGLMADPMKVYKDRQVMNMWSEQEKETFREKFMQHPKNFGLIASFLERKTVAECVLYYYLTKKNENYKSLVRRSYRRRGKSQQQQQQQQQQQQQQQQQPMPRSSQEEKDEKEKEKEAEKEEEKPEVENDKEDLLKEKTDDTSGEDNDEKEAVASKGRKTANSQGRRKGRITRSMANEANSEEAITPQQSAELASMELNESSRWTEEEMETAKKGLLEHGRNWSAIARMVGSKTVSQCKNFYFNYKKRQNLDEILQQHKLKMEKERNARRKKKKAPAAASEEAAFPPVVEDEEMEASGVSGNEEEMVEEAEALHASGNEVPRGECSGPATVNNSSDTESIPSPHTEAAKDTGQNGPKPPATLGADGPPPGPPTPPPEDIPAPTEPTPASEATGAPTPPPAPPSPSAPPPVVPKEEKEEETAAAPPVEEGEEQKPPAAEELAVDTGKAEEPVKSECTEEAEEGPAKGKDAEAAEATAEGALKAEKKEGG
pIC50: −log10 of the molar value.
Measured Parameter: pIC50

# Compound, Measured Parameter, Value Modifier, Result
records = [
    ("CCC(=O)CCCCC[C@H](NC(=O)C1CC12CCOCC2)c1ncc(-c2cc3ccc(C)nc3cc2OC)[nH]1 (single isomer, unassigned) [Compound 413]", "pIC50", "=", 7.21),
    ("CCC(=O)CCCCC[C@H](NC(=O)C1=NOC2(CCN(CC3CC3)CC2)C1)c1ncc(-c2cc3ccc(C)nc3cc2OC)o1", "pIC50", "=", 8.94),
    ("CCC(=O)CCCCC[C@H](NC(=O)C1=NOC2(CCN(C)CC2)C1)c1ncc(-c2cc3ccc(N(C)C)nc3cc2OC)o1", "pIC50", "=", 8.58),
    ("CCC(=O)CCCCC[C@H](NC(=O)C1NC(=O)CC12CN(C)C2)c1nnc(-c2cc3ccccc3nc2OC)o1 (stereo partly drawn)", "pIC50", "=", 8.14),
    ("CCC(=O)CCCCC[C@H](NC(=O)C1CCC2(CC1)CN(C(C)C)C2)c1ncc(-c2cc3ccccc3nc2OC)[nH]1", "pIC50", ">", 8.82),
    ("CCC(=O)CCCCC[C@H](NC(=O)C1=NOC2(CCN(CC3CC3)CC2)C1)c1ncc(-c2cc3ccc(C)nc3cc2F)[nH]1", "pIC50", "=", 8.52),
]

###

Collected IC50 values appear next to each entry.
Target: Recombinant human HDAC8 (Homo sapiens, UniProt Q9BY41)
Construct: purchased Enzo Life Sciences BML-SE145-0100
Sequence (Q9BY41 1-377): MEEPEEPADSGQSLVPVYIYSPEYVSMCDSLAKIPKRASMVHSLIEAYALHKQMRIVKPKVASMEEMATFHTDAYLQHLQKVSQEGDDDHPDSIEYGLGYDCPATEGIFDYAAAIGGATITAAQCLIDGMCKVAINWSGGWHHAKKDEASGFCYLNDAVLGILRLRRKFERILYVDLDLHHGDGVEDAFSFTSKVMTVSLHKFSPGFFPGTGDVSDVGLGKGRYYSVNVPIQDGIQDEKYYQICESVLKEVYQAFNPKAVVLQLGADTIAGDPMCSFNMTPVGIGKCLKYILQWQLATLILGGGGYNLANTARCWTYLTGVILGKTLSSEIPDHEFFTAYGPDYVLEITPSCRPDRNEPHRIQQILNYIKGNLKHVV
Assay: Human HDAC enzyme inhibitor Fluor-de-Lys assay, HDAC8
Format: biochemical
Measured Parameter: IC50 (µM)

# Molecule, Measurement Units, Value Modifier, Result
rows = [
    ("CCC(=O)CCCCC[C@H](NC(=O)C1=NOC2(CCN(C)CC2)C1)c1ncc(-c2cc3ccc(=O)n(C)c3cc2OC)o1", "µM", ">", 0.9),
    ("CCC(=O)CCCCC[C@H](NC(=O)[C@H]1CC12CCN(C)CC2)c1ncc(-c2ccc3nc(C)cc(Cl)c3c2)[nH]1", "µM", "=", 1.21),
    ("CCC(=O)CCCCC[C@H](NC(=O)[C@H]1CC12CCN(CC)CC2)c1ncc(-c2ccc(-n3cccn3)cc2)o1", "µM", "=", 20.5),
    ("CCC(=O)CCCCC[C@H](NC(=O)[C@@]1(C)CC12CCN(C(C)C)CC2)c1ncc(-c2ccc3nc(C)ccc3c2)[nH]1 (single isomer, unassigned)", "µM", "=", 3.18),
    ("CCC(=O)CCCCC[C@H](NC(=O)[C@H]1CC12CCN(CC)CC2)c1ncc(-c2ccc(-c3cnc(C4CC4)cn3)cc2)o1", "µM", "=", 7.72),
    ("CCN1CCC2(CC1)C[C@@H]2C(=O)N[C@@H](CCCCCC(=O)CC1CC1)c1ncc(-c2ccc(F)cc2)[nH]1", "µM", "=", 14.2),
    ("CCC(=O)CCCCC[C@H](NC(=O)C1CC12CCC(N(C)C)CC2)c1ncc(-c2cc3ccccc3nc2OC)[nH]1 (single isomer, unassigned) [Compound 127]", "µM", "=", 0.076),
    ("CCC(=O)CCCCC[C@H](NC(=O)[C@H]1CC[C@]2(CC1)OC(=O)c1cccnc12)c1ncc(-c2ccc3nc(C4CC4)ccc3c2)o1", "µM", ">", 15),
    ("CCC(=O)CCCCC[C@H](NC(=O)C1CC12CC1CCC(C2)N1C)c1ncc(-c2ccc3ncccc3c2)[nH]1 (single isomer, unassigned)", "µM", "=", 5.66),
    ("CCC(=O)CCCCC[C@H](NC(=O)[C@H]1CC12CCN(CC)CC2)c1ncc(-c2cc3nn(C)cc3cc2OC)[nH]1", "µM", "=", 3.11),
    ("CCC(=O)CCCCC[C@H](NC(=O)[C@H]1CC12CCN(C)CC2)c1nc(F)c(-c2cc3ccccc3nc2OC)[nH]1", "µM", "=", 27.3),
    ("CCC(=O)CCCCC[C@H](NC(=O)[C@H]1CC12CCN(C)CC2)c1nnc(-c2cc3ccc(C)nc3cc2OC)o1", "µM", "=", 43.2),
    ("CCC(=O)CCCCC[C@H](NC(=O)[C@H]1CC12CCN(CC)CC2)c1nc(-c2cc3ccc(C)nc3cc2OC)cn1COC(=O)C(C)(C)C", "µM", ">", 0.9),
]

###

biological target: Recombinant human HDAC8 (Homo sapiens); construct: purchased Enzo Life Sciences BML-SE145-0100; experiment: Human HDAC enzyme inhibitor Fluor-de-Lys assay, HDAC8; format: biochemical; settings: recombinant human HDAC8, Fluor-de-Lys assay
pIC50: −log10 of the molar value.
Property: pIC50; scope: individual molecules

# Molecule, Tested System, Value Modifier, pIC50
records = [
    ("CCC(=O)CCCCCC(NC(=O)C1CCC2(CC1)OC(=O)c1ncccc12)c1nnc(-c2cc3ccccc3nc2OC)o1 (centres unmarked)", "Recombinant human HDAC8 (Homo sapiens)", "=", 4.55),
    ("CCC(=O)CCCCC[C@H](NC(=O)C1=NOC2(CCN(CC3CC3)CC2)C1)c1ncc(-c2cc3ccc(=O)n(C)c3cc2OC)o1", "Recombinant human HDAC8 (Homo sapiens)", "<", 6.05),
    ("CCC(=O)CCCCC[C@@H](NC(=O)C1CCC2(CC1)CN(C)C2)c1ncc(-c2ccccc2)[nH]1", "Recombinant human HDAC8 (Homo sapiens)", "=", 5.19),
    ("CCC(=O)CCCCC[C@H](NC(=O)[C@H]1CC12CCN(CC1CC1)CC2)c1ncc(-c2cc3ccc(=O)n(C)c3cc2F)o1", "Recombinant human HDAC8 (Homo sapiens)", "<", 6.05),
    ("CCC(=O)CCCCC[C@H](NC(=O)[C@H]1CC12CCN(C)CC2)c1ncc(-c2ccccc2F)[nH]1", "Recombinant human HDAC8 (Homo sapiens)", "=", 5.28),
    ("CCC(=O)CCCCC[C@H](NC(=O)[C@H]1CC12CCN(CC)CC2)c1ncc(-c2ccc3ncccc3c2)[nH]1", "Recombinant human HDAC8 (Homo sapiens)", "=", 5.50),
    ("CCC(=O)CCCCC[C@H](NC(=O)C1=NOC2(CCN(C)CC2)C1)c1ncc(-c2cc3ccncc3cc2OC)o1", "Recombinant human HDAC8 (Homo sapiens)", "<", 6.05),
    ("CCC(=O)CCCCC[C@@H](NC(=O)C1CCC2(CC1)CNC2)c1ncc(-c2ccccc2)[nH]1", "Recombinant human HDAC8 (Homo sapiens)", "=", 5.77),
    ("CCC(=O)CCCCC[C@H](NC(=O)[C@H]1CC12CCN(C)CC2)c1ncc(-c2ccn3ncnc3c2)[nH]1", "Recombinant human HDAC8 (Homo sapiens)", "=", 4.94),
    ("CCC(=O)CCCCC[C@H](NC(=O)[C@H]1CC12CCCN(C)C2)c1ncc(-c2cc3ccccc3nc2OC)[nH]1 (some centres unmarked) [Compound 287]", "Recombinant human HDAC8 (Homo sapiens)", "=", 5.56),
    ("CCCn1cc(-c2[nH]c(-c3ccc(F)cc3)nc2C(CCCCCC(=O)CC)NC(=O)C2CC23CCN(CC)CC3)cn1 (centres unmarked)", "Recombinant human HDAC8 (Homo sapiens)", "=", 4.41),
    ("CCC(=O)CCCCCC(NC(=O)C1CC12CCN(CC)CC2)c1nc(-c2ccc(F)cc2)[nH]c1-c1ccnn1C (centres unmarked)", "Recombinant human HDAC8 (Homo sapiens)", "=", 4.57),
    ("CCCN1CCC2(CC1)C[C@@H]2C(=O)N[C@@H](CCCCCC(=O)CC)c1ncc(-c2cc3ccccc3nc2OC)[nH]1", "Recombinant human HDAC8 (Homo sapiens)", "=", 5.69),
    ("CCC(=O)CCCCC[C@H](NC(=O)[C@H]1CC12CCN(CC1CC1)CC2)c1ncc(-c2cc3ccc(C)nc3cc2OC)o1", "Recombinant human HDAC8 (Homo sapiens)", "<", 6.05),
]
